These measurements were taken from the supplement of paper PMC10567573.

This listing pairs variants with measured protein stability index.
B1: KLHDC10 (parent)
chain: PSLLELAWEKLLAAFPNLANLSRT

variants of: B1; assay: protein stability index of a GFP-peptide fusion (GPS, HEK-293T) (PSI 1-6); higher = more stable; conditions: c terminus: a fixed tail appended;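 further: lentivirally expressed fusions sorted by FACS into six bins by GFP to DsRed ratio, PSI derived from sequencing read proportions per bin multiplied by bin number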

// below: answered variants
T24I 2.03
A13N 2.04
R23P 1.99
A7G 1.96
K10M 2

// returns reported protein stability index for input S2E
2.03
